System: U251 CNS
Assay: NCI tumour cell line growth inhibition, 48 h
parameter: TGI

- Cc1nc2ncn3c(c-2c1Cc1ccccc1)NC=C(O)N3: > 100 µM
- C1=C(c2ccccc2)C(c2ccc(OCCN3CCCCC3)cc2)Oc2ccccc21 (centres undefined): 3.18 µM
- COc1ccc(NC(=O)CC(=O)N/N=C/c2ccc(N(CCC#N)S(=O)(=O)c3ccccc3)cc2)cc1: > 100 µM
- COc1cc([C@@H]2c3cc4c(cc3[C@@H](c3c(O)cc(O)c5c3O[C@H](c3ccc(O)c(O)c3)[C@H](OC(=O)c3cc(O)c(O)c(O)c3)C5)[C@H]3COC(=O)[C@H]23)OCO4)cc(OC)c1OC: > 100 µM
- COC(CN(C=O)[C@@H](c1ccc(Cl)cc1)c1cc2ccccc2o1)OC: 31.8 µM
- O=c1c2ccccc2nc(-c2ccccc2)n1O: > 100 µM
- CC(C)c1cccc(C(=O)NCCN(C)C)c1[N+](=O)[O-]: > 100 µM
- COc1ccc(C(=O)C(C(=O)C(=O)Nc2nccs2)c2ccc(OC)cc2)cc1 (centres undefined): > 100 µM

Any idea what TGI was measured for `COC(=O)c1nc(-c2nc(CCNC(=O)OC(C)(C)C)sc2Cl)sc1Cl` ? > 100 µM
